Tested on: UO-31
Assay: NCI tumour cell line growth inhibition, 48 h
The source made the active and inactive calls. Cut-off read from the data, not from the text of the source: active = GI50 up to about 1.1 µM and inactive = higher.
Assign a class; possible classes are 1 (yes) for active, 0 (no) for inactive

The following molecules have reported results that may help.
• FC(F)(F)c1ccc2nc(Sc3ccccn3)cnc2c1 = 0 (no)
• Cc1cc2c(cc1C)[n+]([O-])c(C(=O)CC(=O)C(=O)Nc1ccccc1C(C)C)c(C)[n+]2[O-] = 0 (no)
• N#Cc1ccccc1NC(=O)/C(=N\Nc1ccc([N+](=O)[O-])cc1)C1C(=O)NC(=O)NC1=O = 0 (no)

# input Please state the recorded outcome for this molecule: Cc1ccc2c(=O)c(-c3nnc(NC4CCCCC4)s3)c[nH]c2n1
# output 0 (no)

# input Please state the recorded outcome for this molecule: O=C(c1ccc(Cl)cc1)N(C(=S)OCCOc1ccccc1)c1ccccc1
# output 1 (yes)

# input Please state the recorded outcome for this molecule: NC(=O)/N=C1/CCC2C3CCCC2C13
# output 0 (no)

# input Please state the recorded outcome for this molecule: c1ccc2c(c1)Nc1c3ccccc3nc3cccc-2c13
# output 0 (no)

# input Please state the recorded outcome for this molecule: O=C1c2cc([N+](=O)[O-])sc2C(=O)c2c([N+](=O)[O-])csc21
# output 0 (no)

# input Please state the recorded outcome for this molecule: Cc1cc(O)nc(CNC(=O)c2ccc3ccccc3c2)n1
# output 0 (no)
